Provenance of the data: patent US20240116985A1

Target Of Assay: full-length beta-Catenin (Uniprot ID P35222) (Homo sapiens (Human)) (UniProt P35222)
Sequence (P35222 2-781 limits assumed): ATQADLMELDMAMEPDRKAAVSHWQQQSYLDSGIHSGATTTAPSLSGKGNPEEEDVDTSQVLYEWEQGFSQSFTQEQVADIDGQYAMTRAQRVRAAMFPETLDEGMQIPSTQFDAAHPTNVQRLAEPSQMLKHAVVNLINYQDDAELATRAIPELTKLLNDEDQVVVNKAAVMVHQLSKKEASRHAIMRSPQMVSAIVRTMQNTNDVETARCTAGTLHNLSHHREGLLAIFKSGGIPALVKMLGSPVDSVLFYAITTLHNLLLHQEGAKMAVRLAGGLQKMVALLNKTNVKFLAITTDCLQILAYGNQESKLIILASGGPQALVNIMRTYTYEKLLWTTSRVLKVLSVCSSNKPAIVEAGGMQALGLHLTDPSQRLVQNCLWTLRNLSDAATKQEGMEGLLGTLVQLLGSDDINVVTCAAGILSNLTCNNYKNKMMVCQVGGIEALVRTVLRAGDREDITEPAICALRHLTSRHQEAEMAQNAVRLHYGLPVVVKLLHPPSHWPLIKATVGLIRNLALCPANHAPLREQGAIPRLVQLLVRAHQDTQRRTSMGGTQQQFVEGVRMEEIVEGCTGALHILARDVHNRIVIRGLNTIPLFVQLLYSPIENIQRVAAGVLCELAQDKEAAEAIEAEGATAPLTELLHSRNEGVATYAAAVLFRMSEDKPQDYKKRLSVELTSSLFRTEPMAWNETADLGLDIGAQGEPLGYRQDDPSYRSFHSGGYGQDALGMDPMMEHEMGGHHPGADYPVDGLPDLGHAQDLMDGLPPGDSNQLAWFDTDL
Experimental Details: fluorescence polarization competition; full-length beta-catenin; competitor displaced: 5FAM-TCF4 10-53
pIC50: −log10 of the molar value. Starred links: 1 amine or outer side, 2 acyl side, 3 side chain; linkers in the order of their positions; H or OH if unused. Positions of bridges follow the written chain, without caps; N, C: chain ends. Non-standard residues stand in square brackets, D forms with d. Primed or numbered codes have the meaning given here. PyrS2″ = (S)-3-amino-1-((pent-4-en-1-yloxy)carbonyl)pyrrolidine-3-carboxylic acid (stapling residue), C=CCCCOC(=O)N1CC[C@@](N[*:1])(C(=O)[*:2])C1; B5(4) = 2,2-bis(4-pentenyl)glycine = 2-amino-2-(pent-4-en-1-yl)hept-6-enoic acid (stitching residue), C=CCCCC(CCCC=C)(N[*:1])C(=O)[*:2]; B5(8) = 2,2-bis(4-pentenyl)glycine (2-amino-2-(pent-4-en-1-yl)hept-6-enoic acid, stitching residue), C=CCCCC(CCCC=C)(N[*:1])C(=O)[*:2]; TfeGA = (S)-2-amino-3-((carboxymethyl)(2,2,2-trifluoroethyl)amino)propanoic acid, O=C([C@H](CN(CC(=O)[*:3])CC(F)(F)F)N[*:1])[*:2]; Bta = N[C@@H](Cc1csc2ccccc12)C(=O)O; αAllylPro = C=CC[C@@]1(C(=O)O)CCCN1; tBuAla = CC(C)(C)C[C@H](N)C(=O)O; 3Thi = N[C@@H](Cc1ccsc1)C(=O)O; S8 = C=CCCCCCC[C@](C)(N)C(=O)O
Experimental Endpoint: pIC50

Binder	Reported Measurement
Ac-[αAllylPro]D[tBuAla][B5(4)]DEAAFN[PyrS2″][3Thi][Bta]Q-NH2 (staple 1-4, 4-11; not fully specified) [I-690]	8.15
Ac-[αAllylPro]DI[B5(8)]D[TfeGA]AAFN[S8][3Thi][Bta]Q-NH2 (staple 1-4, 4-11) [I-701]	7.47
Ac-[αAllylPro]DI[B5(8)]D[TfeGA]AAFN[S8]F[Bta]Q-NH2 (staple 1-4, 4-11) [I-699]	7.37
